Measured inhibition by item
methodSummary: inhibitors of TNFa-induced NFkB p65 translocation, primary screen, imaging, HUVEC, MLSMR starter and 10KST1 sets (AID 438);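 also: compound added about 3h40 before a 20 min TNFalpha stimulation; signal is the nuclear over cytoplasmic p65 intensity ratio per well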
conditionNotes: HUVEC TNFa-induced p65 nuclear translocation; at 2 µM, active compounds read high, 0% TNFa-plus-vehicle, 100% no-TNFa wells
observationType: inhibition (%)

>>> reportedmeasurement("O=C(c1ccco1)N1CCN(C(=O)c2ccc(Cn3cc(Br)cn3)o2)CC1")
2.6
>>> reportedmeasurement("CCCC(=O)Nc1ccc(OCC(=O)OC)cc1")
-15.4
>>> reportedmeasurement("O=C(CN1C(=O)COc2ccccc21)NCCCN1CCc2ccccc2C1")
-5.4
>>> reportedmeasurement("O=C(N1CCCCCC1)N1CCN(C(=O)N2CCOCC2)CC1")
-13.3
>>> reportedmeasurement("Cc1ccc(NC(=O)C2CCCNC2=O)nc1 (configuration not stated)")
-2.2
>>> reportedmeasurement("CNC(=O)Nc1cccc(C(F)(F)F)c1")
-3.3
>>> reportedmeasurement("O=C1CC(c2ccco2)=Nc2ccccc2N1")
-13.4
>>> reportedmeasurement("CC1=CC=CC2=NC(=O)CC(C)(C(=O)N(CC(=O)NC(C)C)C3CCCC3)N12 (configuration not stated)")
-4.9
>>> reportedmeasurement("CCOC(=O)/C=C(\\C)Sc1cc(=O)oc2ccccc12")
18.4
>>> reportedmeasurement("c1nnc(NC2=NCCCCC2)s1")
-18.3
>>> reportedmeasurement("CCOCCCNC(=O)C1CCN(C(=O)Nc2ccc(Cl)cc2)CC1")
-5
>>> reportedmeasurement("COc1cc2[nH]c(=O)n(CCCCCC(=O)NCCCN3CCCC3=O)c(=O)c2cc1OC")
-23.7

====

fluorescence slope values for the compounds below.
targetUnderTest: Voltage-gated potassium channel subunit beta-2 (Rattus norvegicus)
methodSummary: inhibitors of rat Kvbeta2 reductase activity – biochemical, NADPH fluorescence, primary screen (AID 622);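 also: slope of raw intensity against log time taken from 70 to 1610 s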
conditionNotes: recombinant KvBeta, 4-cyanobenzaldehyde reduction, at 10 µM, active compounds read high
Activity calls are given as the source filed them.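 The calls were made as follows: active = fluorescence slope higher than the sample average by over 3 SD (cut at about -0.22 in these data, passing the limit was not always enough); inactive = the rest.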
observationType: fluorescence slope

>>> reportedmeasurement("COc1ccc(C2CC(=O)c3cnc(NC(=O)c4ccccc4OC)nc3C2)c(OC)c1 (configuration not stated)")
"-0.459 (inactive)"
>>> reportedmeasurement("O=C(O)C1C2C=CC(O2)C1C(=O)NCc1ccc(Cl)cc1 (configuration not stated)")
"-0.531 (inactive)"
>>> reportedmeasurement("O=C(OCCCN1C(=O)c2ccccc2C1=O)c1ccco1")
"-0.482 (inactive)"
>>> reportedmeasurement("O=C(O)c1ccccc1C(=O)Nc1ccccc1")
"-0.5 (inactive)"
>>> reportedmeasurement("O=C(O)c1ccc(-n2nnnc2Oc2ccccc2C(=O)N2CCOCC2)cc1")
"-0.482 (inactive)"
>>> reportedmeasurement("COc1cccc(Oc2ccc(N)cc2)c1")
"-0.44 (inactive)"
>>> reportedmeasurement("S=c1nc(C2CC2)[nH]c2ccccc12")
"-0.49 (inactive)"
>>> reportedmeasurement("CCc1nc(N)nc(N)c1-c1ccc(Cl)cc1")
"-0.503 (inactive)"
>>> reportedmeasurement("CCN(CC)C(=O)c1ccc(NS(=O)(=O)c2ccccc2)cc1")
"-0.478 (inactive)"
>>> reportedmeasurement("COCC(=O)N(Cc1nc2ccccc2c(=O)[nH]1)Cc1cccs1")
"-0.557 (inactive)"
>>> reportedmeasurement("Cc1ccc(S(=O)(=O)NCC2CCC(C(=O)NCCCN3CCOCC3)CC2)cc1 (configuration not stated)")
"-0.564 (inactive)"
>>> reportedmeasurement("COC(=O)c1ccccc1S(=O)(=O)N(CCCN1CCOCC1)Cc1cccs1")
"-0.502 (inactive)"
>>> reportedmeasurement("COc1ccc(C(F)(F)F)cc1NC(=O)c1nc2nc(C)cc(C(F)F)n2n1")
"-0.498 (inactive)"
>>> reportedmeasurement("O=C(NC1CCCCCC1)C1c2ccccc2C(=O)N1Cc1cccnc1 (configuration not stated)")
"-0.575 (inactive)"
>>> reportedmeasurement("CC(=O)Nc1c(I)c(NC(C)=O)c(I)c(C(=O)O)c1I")
"-0.491 (inactive)"
>>> reportedmeasurement("Cc1ccc(C2N(c3ccc(Cl)c(Cl)c3)C(=O)C3CCCN32)o1 (configuration not stated)")
"-0.561 (inactive)"
>>> reportedmeasurement("Cc1sc2ncnc(OCC(=O)N3CCN(S(=O)(=O)c4ccc(Cl)cc4)CC3)c2c1C")
"-0.612 (inactive)"
>>> reportedmeasurement("COc1ccc(N(CC(=O)Nc2ccccc2SC)S(C)(=O)=O)cc1OC")
"-0.468 (inactive)"
>>> reportedmeasurement("CCCC(C(=O)NCc1ccco1)N(C(=O)CNS(=O)(=O)c1ccc(Cl)cc1)C1CCCC1 (configuration not stated)")
"-0.522 (inactive)"
>>> reportedmeasurement("O=C(Cn1nnc2c(cnn2-c2ccc(F)cc2)c1=O)c1ccccc1F")
"-0.553 (inactive)"
>>> reportedmeasurement("Cc1cc(C)cc(N(CC(=O)Nc2cccc(C)n2)S(=O)(=O)c2c(C)noc2C)c1")
"-0.598 (inactive)"
>>> reportedmeasurement("CCNCCNC(=O)c1c(O)c2ccccc2n(CC)c1=O")
"-0.539 (inactive)"
>>> reportedmeasurement("COc1ccc2c(c1)c(CC(=O)O)c(C)n2C(=O)c1ccc(Cl)cc1")
"-0.474 (inactive)"
>>> reportedmeasurement("O=c1c2c3nc4ccccc4nc3n(CC3CCCO3)c2ncn1CCc1ccccc1 (configuration not stated)")
"-0.378 (inactive)"
>>> reportedmeasurement("O=C(CCC(=O)N1CCN(S(=O)(=O)c2ccccc2)CC1)c1cccs1")
"-0.568 (inactive)"
>>> reportedmeasurement("O=C(Nc1ccc(Cl)cc1C(=O)Nc1ccncc1)c1ccco1")
"-0.316 (inactive)"
>>> reportedmeasurement("COc1cccc(C(=O)Nc2ccc(N(C)C)cc2)c1OC")
"-0.493 (inactive)"
>>> reportedmeasurement("CCOc1cc(C(=O)N2CCN(c3ccccc3)CC2)cc(OCC)c1OCC")
"-0.559 (inactive)"
>>> reportedmeasurement("C/C(N)=C(\\C#N)C(=O)NCCc1ccccn1")
"-0.613 (inactive)"
>>> reportedmeasurement("COCCN(Cc1ccccc1)P(=O)(O)c1ccccc1OCC(=O)O")
"-0.446 (inactive)"
>>> reportedmeasurement("C=C(C)COc1ccc(-c2nc(N)ncc2Oc2ccccc2OCC)c(O)c1")
"-0.655 (inactive)"
>>> reportedmeasurement("CCSc1nc2c(c(=O)n1CC)SC(C)C2 (configuration not stated)")
"-0.401 (inactive)"
>>> reportedmeasurement("CN(C)c1ccc(CNC2CC(C)(C)NC(C)(C)C2)cc1")
"-0.584 (inactive)"
>>> reportedmeasurement("CCCCOc1ccc(NC(=O)Cn2c(=O)ccc3c(C)cc(C)nc32)cc1")
"-0.565 (inactive)"
>>> reportedmeasurement("CCc1ccc2oc(-c3cc(N)ccc3Cl)nc2c1")
"-0.298 (inactive)"
>>> reportedmeasurement("CN(C)C(=O)CN(c1ccc(F)c(Cl)c1)S(C)(=O)=O")
"-0.56 (inactive)"
>>> reportedmeasurement("COc1ccc(C(C(C(=O)c2cccs2)N2CCOCC2)N2CCOCC2)cc1OC (configuration not stated)")
"-0.603 (inactive)"
>>> reportedmeasurement("C=C(C)c1cccc(C(C)(C)NC(=O)Nc2ncccn2)c1")
"-0.601 (inactive)"
>>> reportedmeasurement("CCSc1nnc(NC(=O)CSc2ncccn2)s1")
"-0.529 (inactive)"
>>> reportedmeasurement("O=C(CSc1nnc(-c2cccnc2)o1)Nc1ccccn1")
"-0.317 (inactive)"
>>> reportedmeasurement("CCOC(=O)c1nnn(-c2nonc2NC(C)=O)c1C")
"-0.58 (inactive)"
>>> reportedmeasurement("Cc1ccc(O)c(C(=O)c2cc(C#N)c(=O)n(CC3CCCO3)c2)c1 (configuration not stated)")
"-0.561 (inactive)"
>>> reportedmeasurement("Cc1nc(NCc2ccccn2)c2ccccc2n1")
"-0.572 (inactive)"
>>> reportedmeasurement("O=C1[C@@H]2C(c3ccccc3Cl)=NO[C@@H]2C(=O)N1Cc1ccccc1")
"-0.328 (inactive)"
>>> reportedmeasurement("O=C1CCCC2=C1C(c1ccsc1)CC(=O)N2c1ccccc1 (configuration not stated)")
"-0.422 (inactive)"
>>> reportedmeasurement("CCOC(=O)c1ccc(NC(=O)NC(C)C2CCCO2)cc1 (configuration not stated)")
"-0.462 (inactive)"
>>> reportedmeasurement("CCCc1n[nH]c2c1/C(=N/O)CC(c1ccccc1)C2 (configuration not stated)")
"-0.594 (inactive)"

src = PubChem BioAssay
